- Assay System: AKT1 (Homo sapiens (Human), UniProt P31749)
- Sequence (P31749 whole entry): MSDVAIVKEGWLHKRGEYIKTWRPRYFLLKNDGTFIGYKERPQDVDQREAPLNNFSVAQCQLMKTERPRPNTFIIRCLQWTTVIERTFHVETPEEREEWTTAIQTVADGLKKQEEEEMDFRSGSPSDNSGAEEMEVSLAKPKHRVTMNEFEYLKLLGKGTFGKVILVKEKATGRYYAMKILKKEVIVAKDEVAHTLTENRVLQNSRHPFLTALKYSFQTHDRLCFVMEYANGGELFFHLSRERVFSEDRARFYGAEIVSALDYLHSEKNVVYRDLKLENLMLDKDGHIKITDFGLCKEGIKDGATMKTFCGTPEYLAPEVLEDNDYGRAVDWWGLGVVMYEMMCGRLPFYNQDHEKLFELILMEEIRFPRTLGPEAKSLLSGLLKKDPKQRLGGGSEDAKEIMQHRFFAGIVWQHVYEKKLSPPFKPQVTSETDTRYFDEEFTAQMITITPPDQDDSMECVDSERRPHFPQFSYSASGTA
- Procedure Summary: Inactive Akt Alpha Screen Assay
- Condition Context: non *labeled: Akt Alpha Screen assay; read-out: AKT1 biochemical assay, IC50
pIC50: −log10 of the molar value.
Quantity Measured: pIC50

CN(C)c1ccc(-c2nnc3n2-c2ccccc2Nc2ccccc2-3)cc1 ... 5.46
O=C(Nc1ccc(-c2nnc3n2-c2cccnc2Nc2ccccc2-3)cc1)c1cc(C(F)(F)F)cc(C(F)(F)F)c1 ... 5.60
OC1(c2ccccc2)CCN(Cc2ccc(-c3nnc4n3-c3cccnc3Nc3ccccc3-4)cc2)CC1 ... 5.72
O=C(Nc1cccc(Cl)c1)NC1CCN(Cc2ccc(-c3nnc4n3-c3cccnc3Nc3ccccc3-4)cc2)CC1 ... 5.92

I. O=C(Nc1ccccc1)NC1(c2ccc(-c3nnc4n3-c3cccnc3Nc3ccccc3-4)cc2)CCC1
II. O=C(CCc1ccccc1)N1CCN(Cc2ccc(-c3nnc4n3-c3cccnc3Nc3ccccc3-4)cc2)CC1
III. O=C(c1ccccc1)N1CCN(Cc2ccc(-c3nnc4n3-c3cccnc3Nc3ccccc3-4)cc2)CC1
[Q] Order the records by pIC50, with each subsequent value no larger than the one before. Your task in answering is to list the labels in the requested order.
[A] I, III, II
(I: 5.92, III: 5.72, II: 5.47)

* * *

- Assay System: AKT1 (Homo sapiens (Human), UniProt P31749)
- Procedure Summary: Inactive Akt Alpha Screen Assay
- Condition Context: non *labeled: Akt Alpha Screen assay; read-out: AKT1 biochemical assay, IC50
Quantity Measured: IC50 (nM)

Cc1ccc2c(c1)-c1nnc(-c3ccc(C4(N)CCC4)cc3)n1-c1cccnc1N2 ... 960
COc1ccc(C(=O)Nc2ccc(-c3nnc4n3-c3cccnc3Nc3ccccc3-4)cc2)cc1 ... 160
COc1ccc(CCNC(=O)NC2CCN(Cc3ccc(-c4nnc5n4-c4cccnc4Nc4ccccc4-5)cc3)CC2)cc1OC ... 6000
O=C(Nc1ccc(-c2nnc3n2-c2cccnc2Nc2ccccc2-3)cc1)c1cnc2ccccc2n1 ... 160
O=S(=O)(NCc1ccc(-c2nnc3n2-c2cccnc2Nc2ccccc2-3)cc1)c1cccnc1 ... 220
O=C(NCCc1ccc(-c2nnc3n2-c2cccnc2Nc2ccccc2-3)cc1)c1ccccc1 ... 630
O=C(Nc1ccccc1F)NC1CCN(Cc2ccc(-c3nnc4n3-c3cccnc3Nc3ccccc3-4)cc2)CC1 ... 440
N#CC1(c2ccccc2)CCN(Cc2ccc(-c3nnc4n3-c3cccnc3Nc3ccccc3-4)cc2)CC1 ... 7300
Nc1cc(-c2nnc3n2-c2cccnc2Nc2ccccc2-3)ccn1 ... 13000
O=C(Nc1ccc(-c2nnc3n2-c2cccnc2Nc2ccccc2-3)cc1)c1cc2ccccc2s1 ... 360

a. O=C(NCc1ccc(-c2nnc3n2-c2cccnc2Nc2ccccc2-3)cc1)C1CCC1
b. N#Cc1cccc(C(=O)Nc2ccc(-c3nnc4n3-c3cccnc3Nc3ccccc3-4)cc2)c1
c. c1ccc2c(c1)Nc1ncccc1-n1c(-c3ccc(CN4CCN(Cc5ccncc5)CC4)cc3)nnc1-2
d. Fc1ccccc1N1CCN(Cc2ccc(-c3nnc4n3-c3cccnc3Nc3ccccc3-4)cc2)CC1
e. O=C(Nc1ccc(-c2nnc3n2-c2cccnc2Nc2ccccc2-3)cc1)c1ccc(C(F)(F)F)cc1
[Q] Order the records by IC50, with each subsequent value no larger than the one before. Your task in answering is to list the labels in the requested order.
[A] c, d, a, e, b

* * *

- Assay System: AKT1 (Homo sapiens (Human))
- Procedure Summary: Inactive Akt Alpha Screen Assay
- Condition Context: non *labeled: Akt Alpha Screen assay; read-out: AKT1 biochemical assay, IC50
Quantity Measured: IC50 (µM)

Worked examples, 6 compounds total:
c1ccc2c(c1)Nc1ncccc1-n1c(-c3ccc(CNCC4CC4)cc3)nnc1-2 [Example 93] ... 6.7
COc1cccc(S(=O)(=O)NC2CCN(Cc3ccc(-c4nnc5n4-c4cccnc4Nc4ccccc4-5)cc3)CC2)c1 [Example 150] ... 3
O=S(=O)(NC1CCN(Cc2ccc(-c3nnc4n3-c3cccnc3Nc3ccccc3-4)cc2)CC1)c1ccccc1F [Example 147] ... 2.3
NC1(c2ccc(-c3nnc4n3-c3cccnc3Nc3ccc(-c5ccccc5)cc3-4)cc2)CCC1 [Example 224] ... 1.2
CC(C)(C)c1ccc(-c2nnc3n2-c2cccnc2Nc2ccccc2-3)cc1 [Example 7] ... 4.7
O=C(Nc1ccc(-c2nnc3n2-c2cccnc2Nc2ccccc2-3)cc1)c1ccncc1 [Example 58] ... 0.35

I. Fc1ccc2c(CCNCc3ccc(-c4nnc5n4-c4cccnc4Nc4ccccc4-5)cc3)c[nH]c2c1 [Example 202]
II. CCN(Cc1ccncc1)Cc1ccc(-c2nnc3n2-c2cccnc2Nc2ccccc2-3)cc1 [Example 70]
III. CN(CCc1ccccn1)Cc1ccc(-c2nnc3n2-c2cccnc2Nc2ccccc2-3)cc1 [Example 75]
IV. Cc1ccc(S(=O)(=O)NCc2ccc(-c3nnc4n3-c3cccnc3Nc3ccccc3-4)cc2)cc1 [Example 118]
V. O=C(Nc1ccc(-c2nnc3n2-c2cccnc2Nc2ccccc2-3)cc1)C1CCC1 [Example 57]
[Q] Your job: order these 5 records by IC50, ascending. Your task in answering is to list the labels in the requested order.
[A] IV, I, V, III, II

I. COC(=O)c1ccc(-c2nnc3n2-c2cccnc2Nc2ccccc2-3)cc1 [Example 25]
II. COc1cccc(CNC(=O)NC2CCN(Cc3ccc(-c4nnc5n4-c4cccnc4Nc4ccccc4-5)cc3)CC2)c1 [Example 171]
[Q] Quick check, higher IC50 between I and II ? Returns: label corresponding to the selected item.
[A] I

P. O=C(NC1(c2ccc(-c3nnc4n3-c3cccnc3Nc3ccccc3-4)cc2)CCC1)c1ccccc1 [Example 193]
Q. O=S(=O)(Nc1ccc(-c2nnc3n2-c2cccnc2Nc2ccccc2-3)cc1)c1ccccc1 [Example 106]
[Q] # min-compare on IC50 between P and Q Returns: label corresponding to the selected item.
[A] P
(P: 0.073 µM, Q: 6.6 µM)

* * *

- Assay System: UniProt P31749
- Procedure Summary: Inactive Akt Alpha Screen Assay
- Condition Context: non *labeled: Akt Alpha Screen assay; read-out: AKT1 biochemical assay, IC50
pIC50: −log10 of the molar value. Structures can show the parent of a compound that is named as a salt.
Quantity Measured: pIC50

CC(C)CNCc1ccc(-c2nnc3n2-c2cccnc2Nc2ccccc2-3)cc1 ... 5.19

P. OCc1ccc(-c2nnc3n2-c2cccnc2Nc2ccccc2-3)cc1
Q. ClCc1ccc(-c2nnc3n2-c2cccnc2Nc2ccccc2-3)cc1
R. Nc1cccc(-c2nnc3n2-c2cccnc2Nc2ccccc2-3)c1 [Example 18, hydrochloride]
S. c1ccc2c(c1)Nc1ncccc1-n1c(-c3ccc(CNC4CCC4)cc3)nnc1-2
[Q] Your job: order these 4 records by pIC50, ascending. Your task in answering is to list the labels in the requested order.
[A] R, S, Q, P

a. COc1ccc(NC(=O)NC2CCN(Cc3ccc(-c4nnc5n4-c4cccnc4Nc4ccccc4-5)cc3)CC2)c(C)c1
b. COCC(=O)Nc1ccc(-c2nnc3n2-c2cccnc2Nc2ccccc2-3)cc1
[Q] # min-compare on pIC50 between a and b Returns: label corresponding to the selected item.
[A] b

* * *

- System: IGROV-1
- Procedure Summary: MTS Assay, cell proliferation analysis (IGROV-1)
- Format: cell-based
- Condition Context: Homo sapiens; IGROV-1 cells; 72 hours; 10 Percent FBS
Reported IC50 values follow for various compounds
Report the figure in µM without appending any unit label.

NC1(c2ccc(-c3nnc4n3-c3cccnc3Nc3ccc(Br)cc3-4)cc2)CCC1 ... 10
COc1cccc(C(=O)Nc2ccc(-c3nnc4n3-c3cccnc3Nc3ccccc3-4)cc2)c1 ... 23
ClCc1ccc(-c2nnc3n2-c2cccnc2Nc2ccccc2-3)cc1 ... 13
O=C(Nc1ccc(-c2nnc3n2-c2cccnc2Nc2ccccc2-3)cc1)c1ccc(F)cc1 ... 70

Attention now turns to another entry.
[Q] Which IC50 is reported for this compound? `Brc1ccc2c(c1)-c1nnc(-c3ccc(CN4CCC(c5nnc(-c6ccccn6)[nH]5)CC4)cc3)n1-c1cccnc1N2`
[A] 6

* * *

- Assay System: UniProt:P31749
- Procedure Summary: Inactive Akt Alpha Screen Assay
- Condition Context: non *labeled: Akt Alpha Screen assay; read-out: AKT1 biochemical assay, IC50
Quantity Measured: IC50 (nM)

Worked examples, 5 molecules total:
CN(C)c1ccc(C(=O)NCc2ccc(-c3nnc4n3-c3cccnc3Nc3ccccc3-4)cc2)cc1 [Example 98] ... 110
COc1ccccc1C(=O)N1CCN(Cc2ccc(-c3nnc4n3-c3cccnc3Nc3ccccc3-4)cc2)CC1 [Example 134] ... 430
CC(=O)Nc1ccc(S(=O)(=O)NC2CCN(Cc3ccc(-c4nnc5n4-c4cccnc4Nc4ccccc4-5)cc3)CC2)cc1 [Example 151] ... 5000
O=C1NCN(c2ccccc2)C12CCN(Cc1ccc(-c3nnc4n3-c3cccnc3Nc3ccccc3-4)cc1)CC2 [Example 162] ... 950
NC1(c2ccc(-c3nnc4n3-c3cccnc3Nc3ccccc3-4)cc2)CCCCC1 [Example 217] ... 500

1. O=S(=O)(NCc1ccc(-c2nnc3n2-c2cccnc2Nc2ccccc2-3)cc1)c1ccc(Cl)cc1 [Example 119]
2. O=C(NCc1ccc(-c2nnc3n2-c2cccnc2Nc2ccccc2-3)cc1)Nc1ccccc1 [Example 107]
[Q] Quick check, higher IC50 between 1 and 2 ? Returns: label corresponding to the selected item.
[A] 2
(2: 2900 nM, 1: 220 nM)
